FYI, the data here is from patent US20230129258A1.

Some substances, each annotated with its measured Emax (fold induction over background).
- test_target: CD137 (Homo sapiens)
- Sequence (Q07011 24-255): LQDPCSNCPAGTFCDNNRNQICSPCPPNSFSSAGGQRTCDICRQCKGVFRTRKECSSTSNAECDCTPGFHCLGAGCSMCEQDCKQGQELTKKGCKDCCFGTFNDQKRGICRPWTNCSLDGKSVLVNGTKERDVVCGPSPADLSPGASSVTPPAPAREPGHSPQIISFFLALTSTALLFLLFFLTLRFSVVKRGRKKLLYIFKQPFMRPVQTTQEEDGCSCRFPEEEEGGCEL
- method_summary: CD137 reporter assay (Promega, Jurkat cells) in co-culture with EphA2-expressing tumor cells (A549, PC3, HT29)
- Format: cell-based
- Parameters: host or cells: Jurkat reporter cells
- measurement_conditions: CD137 reporter coculture assay with PC3 tumor cells
Starred links: 1 amine or outer side, 2 acyl side, 3 side chain; linkers in the order of their positions; H or OH if unused. Positions of bridges follow the written chain, without caps; N, C: chain ends. Non-standard residues stand in square brackets, D forms with d. Chains are numbered I, II in the order given. ξ: configuration not given here. X1 = O=C(CCOCCOCCOCCN(CCOCCOCCOCCn1cc(CCC(=O)[*:2])nn1)CCOCCOCCOCCn1cc(CCC(=O)[*:3])nn1)[*:1]; X3 = O=C(CCc1cn(CCOCCOCCOCCN(CCOCCOCCOCCC(=O)[*:3])CCOCCOCCOCCn2cc(CCC(=O)[*:2])nn2)nn1)[*:1]; X2 = O=C(CCSCCC(=O)[*:1])N1CN(C(=O)CC[*:2])CN(C(=O)CC[*:3])C1; TATA = O=C(CC[*:1])N1CN(C(=O)CC[*:2])CN(C(=O)CC[*:3])C1; ξDip = NC(C(=O)O)C(c1ccccc1)c1ccccc1; Hyp = O=C(O)[C@@H]1C[C@@H](O)CN1; hArg = N=C(N)NCCCC[C@H](N)C(=O)O; tBuAla = CC(C)(C)C[C@H](N)C(=O)O; Nle = CCCC[C@H](N)C(=O)O; Mpa = O=C(O)CCS
Please give only the number in your answer, with no unit.

I: A[hArg]DC[Hyp]LVNPLCLHP[dD]W[hArg]C-NH2 / II: [Mpa][tBuAla]PE[dK]PYCFADPY[Nle]C-NH2 / III: [tBuAla]PE[dK]PYCFADPY[Nle]C-NH2 (linker I:4-I:11-I:18, II:1-II:8-II:15 via TATA; linker I:N-II:5-III:4 via X1; linker III:N-III:7-III:14 via X2) [BCY12730]
61.73

Per the record, I: Ac-C[tBuAla]PE[dK]PYCFADPY[Nle]CA-NH2 / II: Ac-C[tBuAla]PE[dK]PYCFADPY[Nle]CA-NH2 / III: C[Hyp]LVNPLCL[ξDip]P[dD]WTC-NH2 (linker I:1-I:8-I:15, II:1-II:8-II:15, III:1-III:8-III:15 via TATA; linker I:5-II:5-III:N via X3) [BCY13048] has Emax (fold induction over background) of 48.35
